Origin of measurements: patent US20150307532A1

- Tested target: human recombinant FPPS (Homo sapiens, UniProt P14324)
- Sequence (P14324 whole entry): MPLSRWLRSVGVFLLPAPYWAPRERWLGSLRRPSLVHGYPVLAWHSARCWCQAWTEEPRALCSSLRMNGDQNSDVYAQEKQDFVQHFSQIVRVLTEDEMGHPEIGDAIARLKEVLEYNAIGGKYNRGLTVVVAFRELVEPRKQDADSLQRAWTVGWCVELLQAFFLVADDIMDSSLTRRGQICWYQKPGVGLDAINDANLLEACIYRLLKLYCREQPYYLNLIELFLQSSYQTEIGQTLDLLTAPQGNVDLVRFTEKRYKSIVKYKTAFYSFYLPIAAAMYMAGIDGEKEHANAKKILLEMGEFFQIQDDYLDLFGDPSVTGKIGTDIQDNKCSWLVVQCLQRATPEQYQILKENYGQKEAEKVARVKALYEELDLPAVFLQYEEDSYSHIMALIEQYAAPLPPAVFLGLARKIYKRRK
- Reported conditions: read-out: IC50 (μM) in hFPPS Method 2; ~1 nM hFPPS, 0.2 μM GPP and IPP
Measured log10(IC50) by item
Readout: log10(IC50) (log10 of the value in µM)

- Compound: "O=P(O)(O)C(Nc1ncnc2sc(-c3ccc(C4CC4(F)F)cc3)cc12)P(=O)(O)O (stereo not drawn) [Example 13-1]"
  Readout: "log10(IC50)"
  Number: -1.96
- Compound: "O=P(O)(O)C(Nc1ncnc2sc(-c3ccc(C(F)(F)F)cc3)cc12)P(=O)(O)O [Example 6-1]"
  Readout: "log10(IC50)"
  Number: -1.68
- Compound: "Cc1ccc(-c2cc3c(NC(P(=O)(O)O)P(=O)(O)O)ncnc3s2)cc1 [Example 5-1]"
  Readout: "log10(IC50)"
  Number: -1.66
- Compound: "Cc1ccc(-c2cc3c(NCP(=O)(O)O)ncnc3s2)cc1 [Example 18-1]"
  Readout: "log10(IC50)"
  Number: 0.65
- Compound: "O=P(O)(O)C(Nc1ncnc2sc(-c3ccc4ccccc4c3)cc12)P(=O)(O)O [Example 10-1]"
  Readout: "log10(IC50)"
  Number: -1.20
- Compound: "COc1ccc(-c2cc3c(NC(P(=O)(O)O)P(=O)(O)O)ncnc3s2)cc1 [Example 8-1]"
  Readout: "log10(IC50)"
  Number: -1.82
